target: PadR (Bacillus spizizenii, UniProt E0TW95)
Sequence (E0TW95 1-182): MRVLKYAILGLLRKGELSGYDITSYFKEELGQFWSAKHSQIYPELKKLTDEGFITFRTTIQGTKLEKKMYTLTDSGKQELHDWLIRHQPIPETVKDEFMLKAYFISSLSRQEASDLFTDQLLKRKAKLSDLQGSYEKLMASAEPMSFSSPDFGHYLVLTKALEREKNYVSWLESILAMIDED
test-readout: Kd (µM)

O=C(O)/C=C/c1ccc(O)cc1; 6.2
